- assayed.target: T1, NativeRPtag(large)_with_Tags_and_Cys (Thermoanaerobacter tengcongensis)
- T1 chain: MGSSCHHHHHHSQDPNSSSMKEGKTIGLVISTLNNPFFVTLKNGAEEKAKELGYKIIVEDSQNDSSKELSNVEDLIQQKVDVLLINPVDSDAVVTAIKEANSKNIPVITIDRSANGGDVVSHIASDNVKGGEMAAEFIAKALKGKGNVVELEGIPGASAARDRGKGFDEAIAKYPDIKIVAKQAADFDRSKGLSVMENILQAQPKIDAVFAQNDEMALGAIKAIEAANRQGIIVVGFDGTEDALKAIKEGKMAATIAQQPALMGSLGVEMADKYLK
- assay.method.text: fluorescence anisotropy; 50 mM Tris pH 8.0, 0.005% Tween 20, no additive (Table 2)
assay.endpoint: Kd (nM)

• PAELKLITK (modifications not checked) [RPtag(small) Nd8, Cd4] = 14
